Source: PubChem BioAssay (NCI)

Record form. Attribute: TGI. Fill in for each entry.
system: CAKI-1 renal; test: NCI tumour cell line growth inhibition, 48 h
Give the value, in units of µM, as a plain number.

### Prompt Using CAKI-1 renal as the test system, report measured TGI of OC1CSSC1Cn1cnc2c(Nc3ccc(OCc4cccc(F)c4)c(Cl)c3)ncnc21 (centres undefined) .
### Response 6.85

### Prompt Using CAKI-1 renal as the test system, report measured TGI of CC(C)(C)N1CSC(=S)N(Cc2ccco2)C1 .
### Response 12.4

----------
test system: RPMI-8226 leukemia; test: NCI tumour cell line growth inhibition, 48 h
Record form. Attribute: TGI. Fill in for each entry.

### Prompt Return TGI for the following compound: c1ccc(N=c2sc3ccccc3nc2Nc2ccccc2)cc1
### Response > 100 µM

### Prompt Return TGI for the following compound: CN1CCc2cc(N)cc3c2C1Cc1ccc(O)c(O)c1-3 (stereo not given)
### Response 66.4 µM

### Prompt Return TGI for the following compound: O=C(O)CCNCCCNCCC(=O)O
### Response > 100 µM

### Prompt Return TGI for the following compound: COC(CCC[N+](C)(C)C)CC[N+](C)(C)C (stereo not given)
### Response > 100 µM

### Prompt Return TGI for the following compound: CN1CCN(C2=NCCO2)CC1
### Response > 100 µM

----------
system: M14 melanoma; assay: NCI tumour cell line growth inhibition, 48 h
quantity_measured: TGI

### Prompt Return TGI for the following molecule: COC(=O)c1c(C)cccc1C1CN=NC12Cc1ccc(C)cc1C2=O (stereo unspecified)
### Response > 100 µM

### Prompt Return TGI for the following molecule: C=CCOc1ccc2c(C)cc(=O)oc2c1C
### Response > 100 µM

### Prompt Return TGI for the following molecule: Cc1cc(Cc2cc(C)c(N)cc2N)c(N)cc1N
### Response > 100 µM

### Prompt Return TGI for the following molecule: Cc1c(O)c(O)cc[n+]1C1OC(CO)C(O)C1O (stereo unspecified)
### Response > 100 µM

### Prompt Return TGI for the following molecule: COC([CH2][Hg][n]1cnc2c1c(=O)n(C)c(=O)n2C)CN1C(=O)c2ccccc2S1(=O)=O (stereo unspecified)
### Response > 100 µM

### Prompt Return TGI for the following molecule: Fc1ccc(NC(=S)SCc2ccc3c(c2)OCO3)cc1F
### Response 39.1 µM

----------
test system: TK-10 renal; assay: NCI tumour cell line growth inhibition, 48 h
quantity_measured: log10(TGI) (log10 of the value in µM)
Base-10 log of TGI, unit µM.

### Prompt Return log10(TGI) for the following compound: COc1cccc(C(=O)O[C@H]2[C@@H]3[C@]4(OC(C)=O)CO[C@@H]4C[C@H](O)[C@@]3(C)C(=O)[C@H](OC(C)=O)C3=C(C)[C@@H](OC(=O)[C@H](O)[C@@H](NC(=O)OC(C)(C)C)c4ccco4)C[C@]2(O)C3(C)C)c1
### Response 1.44

### Prompt Return log10(TGI) for the following compound: COc1cc2c(cc1OCCCCN1CCN(CC(=O)Nc3ccc(Cl)cc3C(=O)c3ccccc3Cl)CC1)N=CC1CCCN1C2=O (stereo unspecified)
### Response -0.08

### Prompt Return log10(TGI) for the following compound: CN(C)C(=O)O/N=C1/C(c2c(O)[nH]c3ccccc23)=Nc2ccccc21
### Response 1.76

### Prompt Return log10(TGI) for the following compound: Fc1[nH]nc2ccc([C@@H]3Nc4ccc5[nH]ncc5c4[C@H]4C5CCC(C5)[C@@H]34)cc12 (stereo partly specified)
### Response 1.19

### Prompt Return log10(TGI) for the following compound: OCCN(CCO)c1ncnc2c1ncn2Cc1ccc(CCl)cc1
### Response 1.52
